- subject of test: Monoglyceride lipase (Mus musculus)
- Sequence (O35678 whole entry): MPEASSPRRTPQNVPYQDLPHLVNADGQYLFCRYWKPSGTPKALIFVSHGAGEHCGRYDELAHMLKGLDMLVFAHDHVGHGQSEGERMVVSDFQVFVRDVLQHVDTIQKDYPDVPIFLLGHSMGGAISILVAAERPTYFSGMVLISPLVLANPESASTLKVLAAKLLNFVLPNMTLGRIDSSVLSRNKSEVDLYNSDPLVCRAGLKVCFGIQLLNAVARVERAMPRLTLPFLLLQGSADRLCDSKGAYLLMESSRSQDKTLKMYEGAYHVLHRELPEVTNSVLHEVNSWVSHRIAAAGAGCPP
- procedure text: Inhibition of mouse MAGL preincubated for 30 mins followed by FP-Rh addition after 30 mins by gel-based ABPP assay
reported endpoint: IC50 (nM)

P = O=C(OC(C(F)(F)F)C(F)(F)F)N1CCC(C(O)(c2ccc3c(c2)OCO3)c2ccc3c(c2)OCO3)CC1
Q = O=C(OC(C(F)(F)F)C(F)(F)F)N1CCN(Cc2cccc(Oc3ccccc3)c2)CC1
Ask: In terms of reported IC50, does P or Q have the smaller number? Select an item and report its label.
Reply: Q

###

- subject of test: N-acylethanolamine-hydrolyzing acid amidase (Homo sapiens)
- Sequence (Q02083 29-125 limits assumed): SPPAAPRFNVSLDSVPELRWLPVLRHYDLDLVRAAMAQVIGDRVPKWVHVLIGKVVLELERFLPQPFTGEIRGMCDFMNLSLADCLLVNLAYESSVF
- Sequence (Q02083 126-359 limits assumed): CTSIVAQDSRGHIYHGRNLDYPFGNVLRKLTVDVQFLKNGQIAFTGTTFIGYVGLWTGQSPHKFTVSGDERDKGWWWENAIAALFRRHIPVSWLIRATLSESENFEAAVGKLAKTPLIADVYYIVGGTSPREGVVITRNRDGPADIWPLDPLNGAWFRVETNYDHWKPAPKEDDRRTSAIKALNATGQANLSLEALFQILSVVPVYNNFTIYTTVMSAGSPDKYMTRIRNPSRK
- procedure text: Inhibition of recombinant human NAAA expressed in HEK293 cells preincubated for 10 mins followed by PAMCA substrate addition after 30 mins by fluorescence assay
- Type: cell-based
reported endpoint: IC50 (nM)

Ask: Could you tell me which IC50 is on file for CC(C)(C)[C@@H]1OC(=O)[C@@H]1NC(=O)OCCCCCc1ccccc1 ?
Reply: 302

Ask: Consider the compound shown here: O=C(CCCCCCC1CCCCC1)N[C@H]1CNC1=O What is its recorded IC50?
Reply: 280

a = CC(C)(C)[C@@H]1OC(=O)[C@H]1NC(=O)OCc1ccc(-c2ccccc2)cc1
b = CC(C)(C)[C@@H]1OC(=O)[C@H]1NC(=O)OCCCCCc1ccccc1
Ask: # argmax over IC50 for candidates a and b Identify your pick by its label.
Reply: a

All values here come from ChEMBL document CHEMBL4177521.
